- System: mice
- test: In vivo delivery of FLuc-mRNA lipid nanoparticles in mice, in vivo imaging (IVIS)
- experimentalContext: Fluc-mRNA LNP; route IV; organ: lung; formulation, molar ratio and N/P as in the table
Assign IVIS to each entry below.
# answer = number (no unit)

Q) IVIS for CCCCCCCCCCCCNC(=O)C(CN(CCCN(C)CCCN(CC(OC(C)=O)C(=O)NCCCCCCCCCCCC)CC(OC(C)=O)C(=O)NCCCCCCCCCCCC)CC(OC(C)=O)C(=O)NCCCCCCCCCCCC)OC(C)=O (stereo not drawn) [Compound L0388] ?
A) 1.74E+06

Q) Follow-up item: CCCCCCCCCCCCCCN(C)C(=O)C(O)CN(CCN(C)CCN(CC(O)C(=O)N(C)CCCCCCCCCCCCCC)CC(O)C(=O)N(C)CCCCCCCCCCCCCC)CC(O)C(=O)N(C)CCCCCCCCCCCCCC (stereo not drawn) [Compound L0356]
A) 1.18E+06

Q) Follow-up item: CCCCCCCCCCOC(=O)CCCNC(=O)C(O)CN(CCN(C)CCN(CC(O)C(=O)NCCCC(=O)OCCCCCCCCCC)CC(O)C(=O)NCCCC(=O)OCCCCCCCCCC)CC(O)C(=O)NCCCC(=O)OCCCCCCCCCC (stereo not drawn) [Compound L0386]
A) 1.86E+08

----------
- Test system: mice
- test: In vivo delivery of FLuc-mRNA lipid nanoparticles in mice, in vivo imaging (IVIS)
- experimentalContext: IV, lung; DMG-PEG2000:DSPC:Chol:compound 1.00:10.00:33.00:56.00, N/P 42
Rule: % of organ targeting under 60% gives Not met, otherwise Met.

Q) // inclusive: % of organ targeting at least 60%? input: CCCCCCC(CCCCCC)C(=O)OCCCCCCOC(=O)C(O)CN(C)CCN(C)CCN(C)CC(O)C(=O)OCCCCCCOC(=O)C(CCCCCC)CCCCCC (centres unmarked)
A) Not met

Q) Follow-up item: CCCCCCCCCCNC(=O)C(O)CN(CCCN(C)CCCN(CC(O)C(=O)NCCCCCCCCCC)CC(O)C(=O)NCCCCCCCCCC)CC(O)C(=O)NCCCCCCCCCC (centres unmarked)
A) Met

Q) Follow-up item: CCCCCCCCCCOC(=O)C(O)CN(CCCN(C)CCCN(CC(O)C(=O)OCCCCCCCCCC)CC(O)C(=O)OCCCCCCCCCC)CC(O)C(=O)OCCCCCCCCCC (centres unmarked)
A) Met

Q) Follow-up item: CCCCCCCCCCCCNCC(O)CN(CCCCCN(C)CCCCCN(CC(O)CNCCCCCCCCCCCC)CC(O)C(=O)NCCCCCCCCCCCC)CC(O)C(=O)NCCCCCCCCCCCC (centres unmarked)
A) Met

Q) Follow-up item: CCCCCCC(CCCCCC)C(=O)OCCCCCCOC(=O)C(O)CN(CCCN(C)CCCN(CC(O)C(=O)OCCCCCCOC(=O)C(CCCCCC)CCCCCC)CC(O)C(=O)OCCCCCCOC(=O)C(CCCCCC)CCCCCC)CC(O)C(=O)OCCCCCCOC(=O)C(CCCCCC)CCCCCC (centres unmarked)
A) Not met

----------
Assign Zeta potential (mV) to each entry below.
- test: Potential characterization of nucleic acid lipid nanoparticle preparations
- Format: physicochemical
- experimentalContext: DMG-PEG2000:DSPC:Chol:compound 1.40:11.15:38.95:48.50, N/P 20
Answer in mV, number only, no unit symbol.

Q) Zeta potential (mV) for CCCCCCCCCCOC(=O)C(O)CN(CCCCCN(CC(O)C(=O)OCCCCCCCCCC)CC(O)C(=O)OCCCCCCCCCC)CC(O)C(=O)OCCCCCCCCCC (stereo not drawn) ?
A) 11.23

Q) Follow-up item: CCCCCCCCCCOC(=O)C(O)CN(CCCCCCCN(CC(O)C(=O)OCCCCCCCCCC)CC(O)C(=O)OCCCCCCCCCC)CC(O)C(=O)OCCCCCCCCCC (stereo not drawn)
A) −0.61

Q) Follow-up item: CCCCCCCCCCNC(=O)C(O)CN(CCCCCCCN(CC(O)C(=O)NCCCCCCCCCC)CC(O)C(=O)NCCCCCCCCCC)CC(O)C(=O)NCCCCCCCCCC (stereo not drawn)
A) 8.37

Q) Follow-up item: CCCCCCCCCCNC(=O)C(O)CN(CCCCCN(CC(O)C(=O)NCCCCCCCCCC)CC(O)C(=O)NCCCCCCCCCC)CC(O)C(=O)NCCCCCCCCCC (stereo not drawn)
A) 10.39

Q) Follow-up item: CCCCCCOC(C)OCCCCCCOC(=O)C(O)CN(C)CCN(C)CCN(C)CC(O)C(=O)OCCCCCCOC(C)OCCCCCC (stereo not drawn)
A) 5.14

Q) Follow-up item: CCCCCCCCCCCCOC(=O)C(O)CN(CCCCCN(CC(O)C(=O)OCCCCCCCCCCCC)CC(O)C(=O)OCCCCCCCCCCCC)CC(O)C(=O)OCCCCCCCCCCCC (stereo not drawn)
A) 11.20

The values you see were collected from patent US12233161B1.
